- assay explanation: physchem
- cond: ether, organic solvent or mixture
*1 amine or outer side, *2 acyl side, *3 side chain or, on linkers, in order; H or OH if unused. Where a SMILES comes first, the peptide text is derived from it. [ ]: non-standard residue; d: D form. ξ: configuration not given here. X1 = Cn1c(=O)ccn(C2SC(C(O)C(N[*:1])C(=O)[*:2])C(O)C2O)c1=O; ξOrn(N(OH)Ac) = CC(=O)N(O)CCCC(N)C(=O)O; ξS = NC(CO)C(=O)O
recorded metric: solubility

Looking for the measured solubility of CC(=O)N(O)CCCC(N)C(=O)NC(CCCN(O)C(C)=O)C(=O)NC(CCCN(O)C(C)=O)C(=O)NC(CO)C(=O)NC(C(=O)O)C(O)C1SC(n2ccc(=O)n(C)c2=O)C(O)C1O (stereo not shown) [BAYi 3265 Component A] (H-[ξOrn(N(OH)Ac)][ξOrn(N(OH)Ac)][ξOrn(N(OH)Ac)][ξS][X1]-OH) , can you help?
< 100 µg/mL
